Hello, the source for this data is the supplement of paper PMC12592484, in case you need it.

Test system: CAF#7 (primary prostate cancer-associated fibroblasts of myCAF-like type)
test_summary: drug sensitivity score (DSS2, normalised partial AUC of dose-response, 72 h CellTiter-Glo viability) (DSS (dimensionless)); higher = more sensitive (stronger growth inhibition / cytotoxicity); extreme values may be limits of the assay
Quick rule for you: drug sensitivity score at 2 or higher means MET, lower means NOT MET.

compound	class
O=C(/C=C/c1cccc(S(=O)(=O)Nc2ccccc2)c1)NO [Belinostat] (tested concentration range 1-10000 nM)	MET
O=C(c1ccc(OCCN2CCCCC2)cc1)c1c(-c2ccc(O)cc2)sc2cc(O)ccc12 [Raloxifene] (tested concentration range 1-10000 nM)	NOT MET
CC(C)N(C[C@H]1O[C@@H](n2cnc3c(N)ncnc32)[C@H](O)[C@@H]1O)[C@H]1C[C@@H](CCc2nc3cc(C(C)(C)C)ccc3[nH]2)C1 [Pinometostat] (tested concentration range 0.1-1000 nM)	NOT MET
CNC(=O)c1ccc(N2C(=S)N(c3cnc(C#N)c(C(F)(F)F)c3)C(=O)C23CCC3)cc1F [Apalutamide] (tested concentration range 1-10000 nM)	NOT MET
C[C@H]1C[C@@H](n2c(Nc3ccc(OC(F)(F)F)cc3)nc3cc(CCC(=O)O)ccc32)CC(C)(C)C1 (tested concentration range 1-10000 nM)	NOT MET
Cc1c2oc3c(C)ccc(C(=O)N[C@@H]4C(=O)N[C@H](C(C)C)C(=O)N5CCC[C@H]5C(=O)N(C)CC(=O)N(C)[C@@H](C(C)C)C(=O)O[C@@H]4C)c3nc-2c(C(=O)N[C@@H]2C(=O)N[C@H](C(C)C)C(=O)N3CCC[C@H]3C(=O)N(C)CC(=O)N(C)[C@@H](C(C)C)C(=O)O[C@@H]2C)c(N)c1=O [Dactinomycin] (tested concentration range 0.1-1000 nM)	MET
O=C(Nc1ccc(OC(F)(F)Cl)cc1)c1cnc(N2CC[C@@H](O)C2)c(-c2cc[nH]n2)c1 [Asciminib] (tested concentration range 0.1-1000 nM)	NOT MET
Cc1noc2c1-c1ccccc1C(c1ccc(Cl)cc1)=N[C@H]2CC(N)=O [CPI-0610] (tested concentration range 1-10000 nM)	NOT MET
Oc1nc(-c2ccc(C(F)(F)F)cc2)nc2c1CSCC2 [XAV-939] (tested concentration range 1-10000 nM)	MET
COC(=O)c1ccc2c(c1)[nH]c1ncnc(NCCCN3CCCCC3)c12 [UM729] (tested concentration range 1-10000 nM)	NOT MET
COc1cc([C@@H]2c3cc4c(cc3[C@@H](O[C@@H]3O[C@@H]5CO[C@@H](C)O[C@H]5[C@H](O)[C@H]3O)[C@H]3COC(=O)[C@H]23)OCO4)cc(OC)c1O [Etoposide] (tested concentration range 1-10000 nM)	MET
O=C(CCCCCCC(=O)Nc1ccc([C@H]2O[C@@H](CSc3nc(-c4ccccc4)c(-c4ccccc4)o3)C[C@@H](c3ccc(CO)cc3)O2)cc1)NO [Tubacin] (tested concentration range 1-10000 nM)	MET
CCN(CC)C(=S)SSC(=S)N(CC)CC [Disulfiram] (tested concentration range 5-50000 nM)	NOT MET
O=C(O)CCCCC(CCSCc1ccccc1)SCc1ccccc1 (stereo unspecified) [Devimistat] (tested concentration range 1-10000 nM)	NOT MET
CCc1cc2c(cc1N1CCC(N3CCOCC3)CC1)C(C)(C)c1[nH]c3cc(C#N)ccc3c1C2=O [Alectinib] (tested concentration range 0.1-1000 nM)	NOT MET
CCN(CC)CCN(Cc1ccc(-c2ccc(C(F)(F)F)cc2)cc1)C(=O)Cn1c(SCc2ccc(F)cc2)nc(=O)c2c1CCC2 [Darapladib] (tested concentration range 0.1-1000 nM)	NOT MET
O=C(/C=C/c1cccnc1)NCCCCC1CCN(C(=O)c2ccccc2)CC1 [Daporinad] (tested concentration range 0.1-1000 nM)	MET
Cc1cccc(-c2[nH]c(CNc3ccccc3F)nc2-c2ccc3ncnn3c2)n1 [TEW-7197] (tested concentration range 0.2-2500 nM)	NOT MET
FC(F)(F)c1ccc(CNc2ccc(Cc3c[nH]c4ncc(Cl)cc34)cn2)cn1 [Pexidartinib] (tested concentration range 1-10000 nM)	MET
Cc1c(F)cc(C(=O)NC2CC2)cc1-c1ccc(C(=O)NCC(C)(C)C)cn1 [Losmapimod] (tested concentration range 1-10000 nM)	NOT MET
CO[C@@H](C)Cn1c(=O)n(C)c2cnc3ccc(-c4cncc(C(C)(C)O)c4)cc3c21 (tested concentration range 0.2-2500 nM)	MET
